EXPERIMENTAL DETAILS: Drug level in Sprague-Dawley rat plasma at 30 mg/kg, po after 4 hrs
Format: ADME, organism-based
EXPERIMENTAL ENDPOINT: concentration at 4 h (ng/mL)

concentration at 4 h recorded for this molecule, `CCOc1cc(N2CC(n3c(=O)[nH]c4cc(C(F)(F)F)ccc43)C2)ncc1Cl` , is 5090

1 = CCOc1cc(N2CC(n3c(=O)[nH]c4ccccc43)C2)ncc1Cl
2 = CCNc1cc(N2CC(n3c(=O)[nH]c4ccccc43)C2)nnc1Cl
Of 1 and 2 , whose reported concentration at 4 h is numerically smaller? Your answer should be the label of the entry you select. 2
(2: 842 ng/mL, 1: 5780 ng/mL)

---

EXPERIMENTAL DETAILS: Drug concentration in Sprague-Dawley rat brain at 10 mg/kg, po after 2 hrs
Assay type: ADME, organism-based
REPORTED CONDITIONS: read-out: Drug uptake
EXPERIMENTAL ENDPOINT: concentration at 2 h (ng/g)

concentration at 2 h recorded for this compound, `CCNc1cc(N2CC(n3c(=O)[nH]c4ccc(Br)cc43)C2)nnc1Cl` , is 18

A = CCOc1cc(N2CCC3(CC2)C(=O)Nc2ccc(Br)cc23)nnc1Cl
B = CCOc1cc(N2CCC3(CC2)C(=O)Nc2ccc(Br)cc23)nnc1C(F)(F)F
Of A and B , whose reported concentration at 2 h is numerically smaller? Your answer should be the label of the entry you select. A
(A: 18 ng/g, B: 310 ng/g)

---

Test system: MDR1
EXPERIMENTAL DETAILS: Permeability in pig LLC-PK1 cells transfected with MDR1 gene
Format: ADME, cell-based, Sus scrofa
REPORTED CONDITIONS: read-out: permeability
EXPERIMENTAL ENDPOINT: Papp (×10⁻⁶ cm/s)

a = CCOc1cc(N2CC(n3c(=O)[nH]c4ccccc43)C2)ncc1Cl
b = CCOc1cc(N2CC(n3c(=O)[nH]c4cc(C(F)(F)F)ccc43)C2)ncc1Cl
For this pair, a and b , which shows a numerically higher Papp? Your answer should be the label of the entry you select. a
(a: 13 ×10⁻⁶ cm/s, b: 9 ×10⁻⁶ cm/s)

---

Test system: CHO
EXPERIMENTAL DETAILS: Positive allosteric modulation of mGlu2 receptor in CHO cell membranes preincubated for 30 mins in presence of 4 uM glutamate followed by [35S]GTPgammaS addition and measured after 30 mins by scintillation counting analysis relative to control
REPORTED CONDITIONS: Cricetulus griseus
Reported Emax values are given for each entry in this list.
Reply numerically in %, unit not repeated.

Emax recorded for this molecule, `CCOc1cc(N2CC(n3c(=O)[nH]c4cc(C(F)(F)F)ccc43)C2)ncc1Cl` , is 218

Emax recorded for this molecule, `CCOc1cc(N2CC(n3c(=O)[nH]c4ccccc43)C2)ncc1Cl` , is 259

Emax recorded for this molecule, `CC(C)(C)OC(=O)N1CCC2(CC1)C(=O)Nc1ccc(Br)cc12` , is 120

Emax recorded for this molecule, `CCNc1cc(N2CC(n3c(=O)[nH]c4ccccc43)C2)nnc1Cl` , is 291

Emax recorded for this molecule, `O=C1Nc2ccc(Br)cc2C12CCN(c1ccc(C(F)(F)F)nn1)CC2` , is 53

Emax recorded for this molecule, `O=C1Nc2c(Br)cccc2C12CCN(c1ccc(Cl)nn1)CC2` , is 65

Emax recorded for this molecule, `O=C1Nc2cccc(Br)c2C12CCN(c1ccc(Cl)nn1)CC2` , is 108

Emax recorded for this molecule, `CCOc1nc(N2CC(n3c(=O)[nH]c4cc(C(F)(F)F)ccc43)C2)ncc1Cl` , is 220

Emax recorded for this molecule, `FC(F)(F)c1cccc(C2CCN(c3ccc(Cl)nn3)CC2)c1` , is 128

Emax recorded for this molecule, `O=C1Nc2ccc(Br)cc2C12CCN(c1cccnn1)CC2` , is 141

Emax recorded for this molecule, `CCOc1ccc(N2CCC3(CC2)C(=O)Nc2ccc(Br)cc23)nn1` , is 52

Emax recorded for this molecule, `O=C1Nc2ccc(Br)cc2C12CCN(c1ccc(Cl)nn1)CC2` , is 232

---

EXPERIMENTAL DETAILS: Drug level in Sprague-Dawley rat plasma at 10 mg/kg, po after 4 hrs
Format: ADME, organism-based
EXPERIMENTAL ENDPOINT: concentration at 4 h (ng/mL)

concentration at 4 h recorded for this compound, `CCOc1cc(N2CCC3(CC2)C(=O)Nc2ccc(Br)cc23)nnc1C(F)(F)F` , is 220

P = CCOc1cc(N2CCC3(CC2)C(=O)Nc2ccc(Br)cc23)nnc1Cl
Q = CCNc1cc(N2CC(n3c(=O)[nH]c4ccc(Br)cc43)C2)nnc1Cl
Of P and Q , whose reported concentration at 4 h is numerically smaller? Your answer should be the label of the entry you select. P
(P: 17 ng/mL, Q: 416 ng/mL)

---

EXPERIMENTAL DETAILS: Drug level in Sprague-Dawley rat plasma at 30 mg/kg, po after 2 hrs
Type: ADME, organism-based
EXPERIMENTAL ENDPOINT: concentration at 2 h (µg/mL)

I = CCOc1cc(N2CC(n3c(=O)[nH]c4cc(C(F)(F)F)ccc43)C2)ncc1Cl
II = CCOc1cc(N2CC(n3c(=O)[nH]c4ccccc43)C2)ncc1Cl
III = CCNc1cc(N2CC(n3c(=O)[nH]c4ccccc43)C2)nnc1Cl
Arrange by concentration at 2 h, high to low. To answer, write out the labels according to the requested order. II, I, III
(II: 5.77 µg/mL, I: 2.66 µg/mL, III: 1.48 µg/mL)

---

MEASURED TARGET: Adenosine receptor A2b (Homo sapiens)
EXPERIMENTAL ENDPOINT: pIC50
pIC50 here: minus log base 10 of the concentration, concentration in moles per litre.

pIC50 recorded for this compound, `CCOc1cc(N2CCC3(CC2)C(=O)Nc2ccc(Br)cc23)nnc1C(F)(F)F` , is 6.10

---

Tested on: CHO
EXPERIMENTAL DETAILS: Positive allosteric modulation of mGlu2 receptor in CHO cell membranes at 1 uM preincubated for 30 mins in presence of 4 uM glutamate followed by [35S]GTPgammaS addition and measured after 30 mins by scintillation counting analysis
REPORTED CONDITIONS: Cricetulus griseus
Reported Activity values are given for each entry in this list.
Reply numerically in %, unit not repeated.

Example entries and their recorded answers appear below.
Item: `CCNc1cc(N2CCC3(CC2)C(=O)Nc2ccc(Br)cc23)nnc1Cl` | System: CHO | Activity: 263

Item: `O=C1Nc2cccc(Br)c2C12CCN(c1ccc(Cl)nn1)CC2` | System: CHO | Activity: 31

Item: `CCOc1ccc(N2CCC3(CC2)C(=O)Nc2ccc(Br)cc23)nn1` | System: CHO | Activity: 5

Item: `O=C1Nc2ccc(Br)cc2C12CCN(c1cccnn1)CC2` | System: CHO | Activity: 7

New cases:
Item: `O=C1Nc2ccccc2C12CCN(c1ccc(Cl)nn1)CC2` | System: CHO | Activity: 24

Item: `O=C1Nc2ccc(F)cc2C12CCN(c1ccc(Cl)nn1)CC2` | System: CHO | Activity: 31

---

Tested on: CHO
EXPERIMENTAL DETAILS: Positive allosteric modulation of mGlu2 receptor in CHO cell membranes preincubated for 30 mins in presence of 4 uM glutamate followed by [35S]GTPgammaS addition and measured after 30 mins by scintillation counting analysis relative to control
REPORTED CONDITIONS: Cricetulus griseus
EXPERIMENTAL ENDPOINT: Emax (%)
Reply numerically in %, unit not repeated.

Emax recorded for this molecule, `CCOc1cc(N2CCC3(CC2)C(=O)Nc2ccc(Br)cc23)nnc1C(F)(F)F` , is 216

Emax recorded for this molecule, `O=C1Nc2ccc(C3CC3)cc2C12CCN(c1ccc(Cl)nn1)CC2` , is 169

Emax recorded for this molecule, `Cc1ccc(N2CCC3(CC2)C(=O)Nc2ccc(Br)cc23)nn1` , is 228

New cases:
Emax recorded for this molecule, `O=C1Nc2ccc(Cl)cc2C12CCN(c1ccc(Cl)nn1)CC2` , is 187

Emax recorded for this molecule, `CCNc1cc(N2CC(n3c(=O)[nH]c4ccccc43)C2)ncc1Cl` , is 381

Emax recorded for this molecule, `O=C1Nc2ccccc2C12CCN(c1ccc(Cl)nn1)CC2` , is 217

Emax recorded for this molecule, `CCNc1cc(N2CCC3(CC2)C(=O)Nc2ccc(Br)cc23)nnc1Cl` , is 394

---

EXPERIMENTAL DETAILS: Drug level in Sprague-Dawley rat plasma at 10 mg/kg, po after 2 hrs
Format: ADME, organism-based
EXPERIMENTAL ENDPOINT: concentration at 2 h (µg/mL)

concentration at 2 h recorded for this molecule, `CCOc1cc(N2CCC3(CC2)C(=O)Nc2ccc(Br)cc23)nnc1C(F)(F)F` , is 0.26

a = CCNc1cc(N2CC(n3c(=O)[nH]c4ccc(Br)cc43)C2)nnc1Cl
b = CCOc1cc(N2CCC3(CC2)C(=O)Nc2ccc(Br)cc23)nnc1Cl
Of a and b , whose reported concentration at 2 h is numerically smaller? Your answer should be the label of the entry you select. b

Cited source: ChEMBL document CHEMBL4342481
